readout: MDR1-MDCK efflux ratio

{"molecule": "O=C(NC1CCCC1)C1=CCN(C(=O)C2CC2)C1", "MDR1-MDCK efflux ratio": 5.2}

I. CCc1ccc(S(=O)(=O)NCc2ccnc(N3CCCC3)n2)cc1
II. CC(C)c1csc(NC(=O)C2CCN(c3ncccn3)CC2)n1
Prompt line: When the recorded MDR1-MDCK efflux ratio values are compared, which is smaller: that of I or that of II ? Please indicate the selected item by its label.
Response line: II
(II: 0.562, I: 0.891)

====

readout: MDR1-MDCK efflux ratio

Here is how some molecules turned out for MDR1-MDCK efflux ratio.
{"substance-smiles": "C=CC(=O)N1CCC([C@@H]2CCNc3c(C(N)=O)c(-c4ccc(Oc5ccccc5)cc4)nn32)CC1", "reported-value": 50.8}
{"substance-smiles": "COc1cc(C(C)C)c2c(c1)S(=O)(=O)N(COc1cc(=O)n3cccc(OCCN4CCCCC4)c3n1)C2=O", "reported-value": 91.5}
{"substance-smiles": "COCC(=O)Nc1ccc(NC(=O)Cc2cc(C)ccc2C)cc1", "reported-value": 1.2}

P. C[C@@H](/C=C\C(F)(F)F)Oc1cc(-c2cc(-c3cc(CN(C)C)cs3)cnc2N)ccc1C(N)=O
Q. Cc1csc(Cc2nc(-c3ccc(O)cc3)no2)n1
Prompt line: So which one has the bigger MDR1-MDCK efflux ratio here, P or Q ? Please indicate the selected item by its label.
Response line: P
(P: 32.7, Q: 0.531)

====

stated-conditions: pH 6.8
readout: aqueous solubility (µg/mL)

{"substance-smiles": "Fc1ccc(-c2nnc(CN3CCC(c4c[nH]c5ccccc45)CC3)o2)cc1", "units-text": "µg/mL", "reported-value": 8}

1. COc1ccccc1CC(=O)Nc1ncc(C)s1
2. CCC(CC)NC(=O)c1ccc2ncsc2c1
Prompt line: So which one has the bigger aqueous solubility here, 1 or 2 ? Please indicate the selected item by its label.
Response line: 2

====

readout: intrinsic clearance, human liver microsomes (mL/min/kg)

{"compound": "NC[C@H]1CC[C@@H](C(=O)Nc2ccc3[nH]ncc3c2)O1", "reported-value": 17.7}
{"compound": "O=C(CCn1cncn1)N(CC#Cc1ccccc1)C1CCCC1", "reported-value": 263}
{"compound": "Cc1nc2cc(NC(=O)CCc3c(C)nc4c(c(C)nn4C)c3C)ccc2o1", "reported-value": 24.2}
{"compound": "Cc1noc(Cc2ccc(C)c(O)c2)n1", "reported-value": 10.7}
{"compound": "Cc1ccc(-n2cc(C)cn2)c(NC(=O)CN(C)C)c1", "reported-value": 120}
{"compound": "CN(C)CCN(Cc1ccccc1)Cc1ccccc1O", "reported-value": 330}
{"compound": "CNC(=O)c1cccc(NC(=O)N2CCC(Oc3ccccc3Cl)CC2)c1", "reported-value": 6.6}
{"compound": "O=C(C1CCCN(c2ccccn2)C1)N1CCc2ccccc2C1 (centres undefined)", "reported-value": 172}

1. c1cc(Nc2cc(C3CC3)[nH]n2)nc(Nc2ccc3nc[nH]c3c2)n1
2. O=C(NC1(c2ccccc2)CCC1)c1cc(C2CC2)on1
Prompt line: So which one has the bigger intrinsic clearance, human liver microsomes here, 1 or 2 ? Please indicate the selected item by its label.
Response line: 1

I. Cc1ncc(C)n2nc([C@@H]3C[C@H]3c3nc4c5cccnc5ccn4c3C)nc12
II. Cc1[nH]nc2c1C1(CCCCC1)CC(=O)N2
Prompt line: So which one has the bigger intrinsic clearance, human liver microsomes here, I or II ? Please indicate the selected item by its label.
Response line: I
(I: 16.1 mL/min/kg, II: 8.44 mL/min/kg)

1. O=C(NC1CCCC1)N1CCN(c2nccn3nc4c(c23)CCCC4)CC1
2. c1ccc(CO[C@@H]2CCC[C@H]2n2cc(-c3nccs3)nn2)cc1
Prompt line: So which one has the bigger intrinsic clearance, human liver microsomes here, 1 or 2 ? Please indicate the selected item by its label.
Response line: 1

A. CC(=O)Nc1ccccc1OCCOc1ccc(Cl)cc1
B. O=C(CSC1CCCC1)N1CCC(n2ccnn2)CC1
C. O=C(COc1cccc(-n2cncn2)c1)N1CCc2ccccc21
D. Cc1ncc(C(=O)Nc2ncnc3oc(C)c(C)c23)s1
Prompt line: Order the records, beginning with the lowest intrinsic clearance, human liver microsomes and ending with the highest. Please express your ranking as an ordered list of the labels.
Response line: B, D, C, A

a. O=C(NCCc1ccc2c(c1)OCO2)C1CCCC1
b. Cc1noc2ncc(C(=O)Nc3nc(C4CC4)cs3)cc12
Prompt line: When the recorded intrinsic clearance, human liver microsomes values are compared, which is smaller: that of a or that of b ? Please indicate the selected item by its label.
Response line: a

====

readout: MDR1-MDCK efflux ratio

{"molecule": "Cn1ccc2c(C(=O)Nc3ncn(Cc4cccnc4)n3)cccc21", "MDR1-MDCK efflux ratio": 54.9}

I. COc1cccc(S(=O)(=O)N2CCOC(c3c(C(N)=O)sc4ncccc34)C2)c1 (configuration not stated)
II. CC(C)(C)c1cnc(CN2CCC(=O)Nc3cc(F)ccc32)o1
Prompt line: So which one has the bigger MDR1-MDCK efflux ratio here, I or II ? Please indicate the selected item by its label.
Response line: I
(I: 38.2, II: 1.92)

P. CC(C)(C)c1[nH]cnc1/C=c1\[nH]c(=O)/c(=C/c2ccccc2)[nH]c1=O
Q. CC(C)c1cc(C(=O)N2Cc3ccc(CN4CCN(C)CC4)cc3C2)c(O)cc1O
R. Cc1noc([C@@H]2C[C@H](NC(=O)c3ccc(F)cc3)CN2C)n1
Prompt line: Order the records, beginning with the lowest MDR1-MDCK efflux ratio and ending with the highest. Please express your ranking as an ordered list of the labels.
Response line: R, P, Q

====

readout: intrinsic clearance, human liver microsomes (mL/min/kg)

{"compound": "Clc1ccc(CSc2nc(-c3ccccc3)cs2)cn1", "reported-value": 221}
{"compound": "O=C(NC1CC1)c1cccc2cccnc12", "reported-value": 5.23}
{"compound": "CC1CCC(NC(=O)c2oc3ccccc3c2CS(C)=O)CC1 (configuration not stated)", "reported-value": 15.2}
{"compound": "CC(=O)c1cc(Br)cc(F)c1OCc1ccccn1", "reported-value": 66}

a. Cc1cc(C)c(CC(=O)N2CC(CO)C2)c(C)c1
b. COc1ccc(Nc2c(C#N)cnc3cc(OC)c(OC)cc23)cc1Cl
c. O=C1c2ccccc2C(=O)N1CCNc1ccc(F)cc1
Prompt line: Order these by intrinsic clearance, human liver microsomes, descending, and give the full ranking. Please express your ranking as an ordered list of the labels.
Response line: c, b, a
(c: 87.6 mL/min/kg, b: 53.1 mL/min/kg, a: 4.99 mL/min/kg)

====

readout: fraction unbound, human plasma

I. Cc1ccc(NC(=O)CN2[C@H](Cc3ccccc3)C[C@]3(C)NC(=O)CCC[C@H]23)cc1F
II. CN(C)C(=O)C1(Cc2ccccc2-c2ccccc2)CCN(C(=O)c2cnn(C)c2)CC1
III. O=C(c1ccc(Oc2ccccc2)cc1Cl)c1c[nH]c2ncnc(N[C@@H]3CC[C@@H](CO)OC3)c12
IV. Cc1cc(F)ccc1C1C(=O)NCCN1C(=O)c1ccc2nccn2c1 (centres undefined)
Prompt line: Parameters: sort_field (fraction unbound, human plasma), sort_dir (desc). Please express your ranking as an ordered list of the labels.
Response line: IV, II, I, III

====

stated-conditions: pH 6.8
readout: aqueous solubility (µg/mL)

{"substance-smiles": "Cc1ccc(C)c(OCCN(C)C(=O)c2ccc3c(c2)nnn3C)c1", "aqueous solubility, µg/mL": 29.2}
{"substance-smiles": "CC(C)(C=C(C#N)C(=O)N1CCC[C@@H](n2nc(-c3ccc(Oc4ccccc4)cc3F)c3c(N)ncnc32)C1)N1CCN(C2COC2)CC1", "aqueous solubility, µg/mL": 35.8}
{"substance-smiles": "Cc1nnc(-c2cccc(C(=O)O)c2)o1", "aqueous solubility, µg/mL": 34.4}

A. CN(CC(=O)NC1(C#N)CCCCC1)c1cccc(C#N)c1
B. Cc1ccc(CNC/C=C/c2ccccc2)cn1
C. Cn1cc(C(=O)N2CCC(CC(=O)O)CC2)cn1
Prompt line: Order these by aqueous solubility, descending, and give the full ranking. Please express your ranking as an ordered list of the labels.
Response line: C, B, A
(C: 57.3 µg/mL, B: 29.1 µg/mL, A: 20.3 µg/mL)

====

readout: intrinsic clearance, human liver microsomes (mL/min/kg)

{"compound": "CSC1(CNC(=O)N2CCC=C(c3ccccc3)C2)CCOCC1", "reported-value": 120}

I. Cc1cc(Nc2cnccn2)cc(C2CCCN(CC(=O)N3CCCC3)C2)n1 (configuration not stated)
II. CCc1c(C)nn(CCNC(=O)CCc2cnccn2)c1C
Prompt line: When the recorded intrinsic clearance, human liver microsomes values are compared, which is smaller: that of I or that of II ? Please indicate the selected item by its label.
Response line: I

1. CN(Cc1cccc(C#N)c1)c1cnc2ccccc2n1
2. CCOC(=O)c1cccnc1SCc1cccnc1
Prompt line: When the recorded intrinsic clearance, human liver microsomes values are compared, which is smaller: that of 1 or that of 2 ? Please indicate the selected item by its label.
Response line: 1
(1: 75.3 mL/min/kg, 2: 293 mL/min/kg)

Value source: the Biogen ADME set (Fang et al. 2023)
